# Assay System: GlcNAc(b1-4)GlcNAc
# Assay Protocol: glycan array binding signal (z-score within array); higher = stronger binding
# Protocol Conditions: glycan notation: IUPAC condensed, linker removed
The full list was thinned out, with the strongest signals kept by preference.
Measure: glycan array binding signal (z-score)

Field: example entries. Status: answers known.
| Binder | glycan array binding signal (z-score) |
| --- | --- |
| PGP3 (Chlamydia trachomatis), P0CE18 (protein) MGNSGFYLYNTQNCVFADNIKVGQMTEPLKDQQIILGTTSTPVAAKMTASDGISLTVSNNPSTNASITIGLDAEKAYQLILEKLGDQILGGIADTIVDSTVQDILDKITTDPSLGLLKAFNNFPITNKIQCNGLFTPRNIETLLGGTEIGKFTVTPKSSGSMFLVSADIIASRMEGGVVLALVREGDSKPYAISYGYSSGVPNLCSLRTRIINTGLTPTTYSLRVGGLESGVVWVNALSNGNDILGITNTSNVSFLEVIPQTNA | 0.682 |
| LecB PA7 (Pseudomonas aeruginosa) (protein) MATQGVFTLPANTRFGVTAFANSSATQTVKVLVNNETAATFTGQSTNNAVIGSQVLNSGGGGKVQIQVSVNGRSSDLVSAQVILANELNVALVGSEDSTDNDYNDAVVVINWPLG | -0.486 |

Now turn to the next binder.
Exam item: Looking for the measured glycan array binding signal (z-score) of HBHA-Rv (Mycobacterium tuberculosum), P0A5P6 (protein) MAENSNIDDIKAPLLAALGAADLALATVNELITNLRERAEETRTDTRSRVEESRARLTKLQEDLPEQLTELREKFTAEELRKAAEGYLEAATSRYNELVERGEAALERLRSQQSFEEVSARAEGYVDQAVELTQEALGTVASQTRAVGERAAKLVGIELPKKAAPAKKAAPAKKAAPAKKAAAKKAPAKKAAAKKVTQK , can you help?
Marked response: -0.292
